# System: Plasmodium falciparum TM91C235
# experiment description: In vitro antimalarial [3H]-hypoxanthine incorporation assay, TM91C235
# Assay type: cell-based
# condition info: Plasmodium falciparum; P. falciparum TM91C235 (multiple drug resistant isolate), 72 hours exposure
Threshold check on IC50: strictly below 0.2 µg/mL is Satisfied; on or above 0.2 µg/mL is Not satisfied.

molecule: CC[C@H]1OC(=O)[C@H](C)[C@@H](O[C@H]2C[C@@](C)(OC)[C@@H](O)[C@H](C)O2)[C@H](C)[C@@H](O[C@@H]2O[C@H](C)C[C@H](N(C)C)[C@H]2O)[C@](C)(O)C[C@@H](C)CN(CCCNC(=O)Nc2cc(C(=O)OC)cc(C(=O)OC)c2)[C@H](C)[C@@H](O)[C@]1(C)O [Example 72]
assigned label: Not satisfied
//
molecule: CC[C@H]1OC(=O)[C@H](C)[C@@H](O[C@H]2C[C@@](C)(OC)[C@@H](O)[C@H](C)O2)[C@H](C)[C@@H](O[C@@H]2O[C@H](C)C[C@H](N(C)C)[C@H]2O)[C@](C)(O)C[C@@H](C)CN(CCCNC(=S)NCc2ccc3c(c2)CCC3)[C@H](C)[C@@H](O)[C@]1(C)O.O=CO [Example 117]
assigned label: Not satisfied
//
molecule: CC[C@H]1OC(=O)[C@H](C)[C@@H](O[C@H]2C[C@@](C)(OC)[C@@H](O)[C@H](C)O2)[C@H](C)[C@@H](O[C@@H]2O[C@H](C)C[C@H](N(C)C)[C@H]2O)[C@](C)(O)C[C@@H](C)CN(CCCNC(=O)Nc2ccc(C(C)C)cc2)[C@H](C)[C@@H](O)[C@]1(C)O [Example 66]
assigned label: Satisfied

IN: Find out if reported IC50 for CC[C@H]1OC(=O)[C@H](C)[C@@H](O[C@H]2C[C@@](C)(OC)[C@@H](O)[C@H](C)O2)[C@H](C)[C@@H](O[C@@H]2O[C@H](C)C[C@H](N(C)C)[C@H]2O)[C@](C)(O)C[C@@H](C)CN(CCCNC(=S)Nc2ccc(F)cc2)[C@H](C)[C@@H](O)[C@]1(C)O [Example 99] is less than 0.2 µg/mL
OUT: Satisfied

IN: Find out if reported IC50 for CCOC(=O)c1ccc(NC(=S)NCCCN2C[C@H](C)C[C@@](C)(O)[C@H](O[C@@H]3O[C@H](C)C[C@H](N(C)C)[C@H]3O)[C@@H](C)[C@H](O[C@H]3C[C@@](C)(OC)[C@@H](O)[C@H](C)O3)[C@@H](C)C(=O)O[C@H](CC)[C@@](C)(O)[C@H](O)[C@H]2C)cc1 [Example 112] is less than 0.2 µg/mL
OUT: Satisfied

IN: Find out if reported IC50 for CC[C@H]1OC(=O)[C@H](C)[C@@H](O[C@H]2C[C@@](C)(OC)[C@@H](O)[C@H](C)O2)[C@H](C)[C@@H](O[C@@H]2O[C@H](C)C[C@H](N(C)C)[C@H]2O)[C@](C)(O)C[C@@H](C)CN(CCCNC(=O)Nc2ccc(F)c(F)c2)[C@H](C)[C@@H](O)[C@]1(C)O.O=CO [Example 76] is less than 0.2 µg/mL
OUT: Satisfied

IN: Find out if reported IC50 for CC[C@H]1OC(=O)[C@H](C)[C@@H](O[C@H]2C[C@@](C)(OC)[C@@H](O)[C@H](C)O2)[C@H](C)[C@@H](O[C@@H]2O[C@H](C)C[C@H](N(C)C)[C@H]2O)[C@](C)(O)C[C@@H](C)CN(CCCNC(=S)Nc2ccc(Br)cc2)[C@H](C)[C@@H](O)[C@]1(C)O.O=CO [Example 137] is less than 0.2 µg/mL
OUT: Satisfied

Data credit: patent US20080200404A1
